Provenance of the data: paper PMC8799878

Target or system PDEδ protein (Homo sapiens); recorded quantity Kd.
State just the number; it will be interpreted in nM.

## Task Value lookup for Kd; key = O=C(CCCN1CCC2(CC1)C(=O)NCN2c1ccccc1)c1ccc(F)cc1 [Compound 9, Spiperone, reference compound]
## Result 1470

## Task Value lookup for Kd; key = O=C(CCCN1CCC2(CC1)C(=O)NCN2c1ccccc1)N(Cc1ccc2ncccc2c1)c1ccccc1 [Compound 36j]
## Result 1340

## Task Value lookup for Kd; key = O=C(CCCN1CCC2(CC1)C(=O)NCN2c1ccccc1)N(CC1CC1)c1ccccc1 [Compound 36o]
## Result 1130

## Task Value lookup for Kd; key = O=C(CCCN1CCC2(CC1)C(=O)NCN2c1ccccc1)N(Cc1c[nH]cn1)c1ccccc1 [Compound 36e]
## Result 1660

## Task Value lookup for Kd; key = O=C(CCCN1CCC2(CC1)C(=O)NCN2c1ccccc1)N(Cc1cccc(Br)c1)c1ccccc1 [Compound 36d]
## Result 690

## Task Value lookup for Kd; key = O=C(CCCN1CCC2(CC1)C(=O)NCN2c1ccccc1)N(Cc1ccccc1F)c1ccccc1 [Compound 36a]
## Result 1310

## Task Value lookup for Kd; key = O=C(CCCN1CCC2(CC1)C(=O)NCN2c1ccccc1)NC1CCCCC1 [Compound 23d]
## Result 1700

## Task Value lookup for Kd; key = O=C(CCCN1CCC2(CC1)C(=O)NCN2c1ccccc1)NC1CCCC1 [Compound 23e]
## Result 1540

## Task Value lookup for Kd; key = O=C(CCCN1CCC2(CC1)C(=O)NCN2c1ccccc1)N(Cc1ccc(Cl)cc1)c1ccccc1 [Compound 36b]
## Result 328

## Task Value lookup for Kd; key = O=C(CCCN1CCC2(CC1)C(=O)NCN2c1ccccc1)NCc1cccc2ccccc12 [Compound 23c]
## Result 2190

## Task Value lookup for Kd; key = O=C(CCCN1CCC2(CC1)C(=O)NCN2c1ccccc1)N(Cc1ccncc1)c1ccccc1 [Compound 36i]
## Result 1480

## Task Value lookup for Kd; key = O=C(CCCN1CCC2(CC1)C(=O)NCN2c1ccccc1)N(Cc1ccccn1)c1ccccc1 [Compound 36h]
## Result 1370

## Task Value lookup for Kd; key = O=C(CCCN1CCC2(CC1)C(=O)NCN2c1ccccc1)Nc1ccc2c(c1)CCC2 [Compound 23b]
## Result 1540

## Task Value lookup for Kd; key = O=C(CCCN1CCC2(CC1)C(=O)NCN2c1ccccc1)N(CC1CCCC1)c1ccccc1 [Compound 36m]
## Result 159

## Task Value lookup for Kd; key = O=C(CCCN1CCC2(CC1)C(=O)NCN2c1ccccc1)N(Cc1ccccc1Br)c1ccccc1 [Compound 36c]
## Result 485

## Task Value lookup for Kd; key = O=C(CCCN1CCC2(CC1)C(=O)NCN2c1ccccc1)Nc1ccccc1 [Compound 23a]
## Result 1670

## Task Value lookup for Kd; key = O=C(CCCN1CCC2(CC1)C(=O)NCN2c1ccccc1)N(CC1CCC1)c1ccccc1 [Compound 36n]
## Result 393

## Task Value lookup for Kd; key = O=C(CCCN1CCC2(CC1)C(=O)NCN2c1ccccc1)N(Cc1cnc2ccccc2c1)c1ccccc1 [Compound 36k]
## Result 1330
